Test system: L. infantum MHOM/MA(BE)/67
Experiment: Leishmania infantum macrophage screening assay
Type: cell-based
Details: 120 h, primary screen, reference drugs, primary peritoneal mouse macrophages, 5 days incubation
reported_endpoint: pIC50
API: returns pIC50 as number; meaning -log10 of concentration in mol/L.

Note pIC50 for the molecule shown: CCCCCCCCCCCCCCCCOP(=O)([O-])OCC[N+](C)(C)C
5.37

----------
Assay: In vitro metabolism, mouse/human liver microsomes
Format: in vitro ADME
Settings: read-out: in vitro metabolism T1/2 (Mouse/human liver microsomes)
reported_endpoint: half-life

For the molecule O=C(Nc1ccc2c(c1)B(O)OC2)c1ccccc1C(F)(F)F , give its measured half-life value.
5.67 to 6 h

Output half-life of [O-][S+](c1ccc(Cl)cc1)c1ccc2c(c1)B(O)OC2 (centres unmarked)
> 5.83 h

----------
Test: In vitro metabolism, mouse S9
Type: in vitro ADME
Conditions: S9 fraction, read-out: in vitro metabolism T1/2 (Mouse S9)
reported_endpoint: half-life

Given the compound O=C(Nc1ccc2c(c1)B(O)OC2)c1ccccc1C(F)(F)F , write its reported half-life.
3.33 to 3.75 h
